Tested on: K4 kissing-loop RNA reporter;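 also: bound reporter read as fluorescence of individual clusters on recovered sequencing chips by microscopy, with normalized cluster intensities fitted with a binding model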
Experiment: apparent KD of K4 kissing-loop reporter; higher = weaker reporter binding
Details: Eterna round: R107; input ligand: theophylline 20 uM
Binary call on apparent KD of K4 kissing-loop reporter: yes (1) from 0.2 µM upward, no (0) beneath that.

INSERT INTO assay_data (macromolecule_sequence, assigned_class) VALUES
  ('UGAUAGGACAGAAGGAGCGGAAGUGAUGUUUCCAAAAGGAAAGGUCGACAAAGUCGACCCUUCCAGGUAGGUCGCUGUCCUAUCU [ArgBX 8 #Palindromic #SwitchBubble #StaticStem]', 'no (0)'),
  ('AGAUUCGACACGGCCGCCACUCGUGGUGGAUUAUCCUAUGUAAGACAUGAGUGAUGUUCAUGUACGAGGACCGGGUGUUGAGUCU [KL-XTryp-B5 #analogue]', 'yes (1)'),
  ('UUAUAUAUAUUAGAUACCAGUUUAAUGGAAACAAAUUAUGUUAUGAGUGAUGUUCAUGUAAGCCCUUGGCAGCUGGUAUGGGUUU [KL-XTheo-B18]', 'yes (1)'),
  ('AUUCGUUUAUGUGAUACCAGACUUUGCAGUGAUGUUGCAUUUAUUUUUGAAUUUUAGUUUGUCCCUUGGCAGCACUAUUUAUUUA [JR_SSTheophyB_Sub005]', 'no (0)'),
  ('UAAUGGUAAGUGAUGUUUACCUGGAACGAUACCAGUCGCCAUGAGGACCCUUGGCAGCGUCACACAGCCUUCUAGUUGUGGUCUU [theeternabot_sameState_KL_Theo_A_46]', 'yes (1)'),
  ('CGAAGACUUAUGGAUACCAGCCUAGCAUCAGGUGGUUCAGAGGCAUGCAGUGAUGUUGCAGGCCCUUGGCAGCCAUGGUACUAGA [Xelebi]', 'no (0)'),
  ('UGUACCGAGUCAGGAUAUGGCGUCGAAAGACGAAUUCUAGUGAUGUUAGGGAUCUGCGAAAGCAGUCCAGAAGGGACUUGGUACU [FmnBS 26 U36]', 'yes (1)'),
  ('UGUCAUUGGUCGGCCGCCACUAGGACCGGGAGUAACCUAGUGAUGUUAGUGUGCUCGGCCGCCACUAGGACCGGGACCGAUGACU [KL-SSTryp-B22 #DoubleAptamer]', 'no (0)'),
  ('AAUGAUGAUUGACACAUUUACUAAAAGGAAGGAGCGGCGAUGUGGCCAGGUAGGUCGCCUUUUAGCAGUGAUGUUGCUAUAUGUU [JR_Nu_ExcArginiA_Sub026]', 'no (0)'),
  ('CUCGAGUGAUGUUCGACGCGUCCGUACGAUACCAGCGUAGACCGUCGCCCUUGGCAGCGUGAUGCAGCCCGAAAGUCCGGUUCCU [theeternabot_sameState_KL_Theo_A_26]', 'yes (1)'),
  ('ACGUCUCGUAAACUCGUGGUUUCGAUCGAUACCAGUAGCGAGAGUUACCCUUGGCAGCGACAUGAGUGAUGUUCAUGUACGAAGA [KL-XTheoA2]', 'no (0)');

----------
Recorded apparent KD of MS2 coat protein by entry
Tested on: MS2 coat protein
Experiment: apparent KD of MS2 coat protein; designed switch direction (-1 OFF switch, 1 ON switch): -1; higher = weaker reporter binding
Conditions: Eterna round: R95; input ligand: FMN 200 uM
recorded metric: apparent KD of MS2 coat protein (nM)

INSERT INTO results (macromolecule_sequence, assayed_target, recorded_metric, test_value) VALUES
  ('UUUUUAGUGCUUUUUAAGUACAUGAGGAUCACCCAUGUACUUGUCUGGUGGUCCGGACAAGCUUUUUGCUCGUCUUG [Trying Again] (puzzle: Sensor v3, turn-off variant 1)', 'MS2 coat protein', 'apparent KD of MS2 coat protein', 41.4),
  ('AGAGUACAUGAGGAUCACCCAUGUUAGGAUAUGCAUAAUAAGAAGAAGAGAAGAGAGAGCAGAAGGAACAAGAG [Ex 1 M1] (puzzle: Exclusion 1)', 'MS2 coat protein', 'apparent KD of MS2 coat protein', 42.5),
  ('CAUACUAAAGUCAGGAUAUGCAGUCGAAUACGGGUGUAGAAGGGACAUGAGGAUCACCCAUGUAGAUAGUAAAG [EX-4 Malc #20] (puzzle: Brourd''s mod of Exclusion 4)', 'MS2 coat protein', 'apparent KD of MS2 coat protein', 37.9),
  ('CUUAGCCUAAAAUCACGCAAGCUUUCUGCUUGUCUUAAGACAUGAGGAUCACCCAUGUCCGGGCUGAACUUAUGGAA [Inve] (puzzle: Sensor v3, turn-off variant 2)', 'MS2 coat protein', 'apparent KD of MS2 coat protein', 18.8),
  ('GCCAGAGCAGGAUAUCUAAUAUCUCACAUGAGGAUCACCCAUGUCCAGCGAAAGCUGGAGGGAGAAGGGCUCUGGC [Fiskers Ex 5 - 10] (puzzle: Exclusion 5)', 'MS2 coat protein', 'apparent KD of MS2 coat protein', 34.3),
  ('CCGGUAAAGGAGGAUAUAGGAGUCGAUAGACACCUAGAAGGCCUGACAUGAGGAUCACCCAUGUGUCCUACCGG [Fiskers Ex 6 - 93] (puzzle: Exclusion 6)', 'MS2 coat protein', 'apparent KD of MS2 coat protein', 23.7),
  ('GAUUAUGCGAGCUUUAGGGACAUGAGGAUCACCCAUGUUCGUCUUAUUGAUCUGGAUGCGCUAACAUACCUAAAUCU [JMF 45] (puzzle: Sensor v3, turn-off variant 1)', 'MS2 coat protein', 'apparent KD of MS2 coat protein', 65),
  ('ACGAGGUCAGGAUAUACAGAGAGAAGGAGUUGGUUGAGGUAACAUGAGGAUCACCCAUGUAGAAGGGACUGGGA [JR_Exclu2_Sub081] (puzzle: Exclusion 2)', 'MS2 coat protein', 'apparent KD of MS2 coat protein', 48),
  ('AAAAAGGUAGGAUAUACGAAAAAAAAGGGUAGAAAAAAAACACAUGAGGAUCACCCAUGUAGAAGGACCAAAAC [salish99_ex2_r3_046] (puzzle: Exclusion 2)', 'MS2 coat protein', 'apparent KD of MS2 coat protein', 66.7),
  ('AAAAGGUCAGGAUAUCCAAGAAAAGAAAAGAAAAGAAAAGAGGAGAAGGGACAUGAGGAUCACCCAUGUAAAAG [Default title] (puzzle: Exclusion 4)', 'MS2 coat protein', 'apparent KD of MS2 coat protein', 39),
  ('GAUUGACAUGAGGAUCACCCAUGUGAGGAUAUCGGCCGGACCUUGUUAGCUUCCAGCGCGAGAAGGCGCAUAGG [Exclusion 1 V36] (puzzle: Exclusion 1)', 'MS2 coat protein', 'apparent KD of MS2 coat protein', 58.9);
